# assayName: Metabolite radioprofiling of plasma, urine and feces, rat
# Type: in vivo
# assayContext: rat (5 mg/kg) oral 14C-talarozole, male
observable: Plasma 0-24 h AUC of the radioactive component (ng·h/g)

CCC(CC)C(c1ccc(Nc2nc3ccc(OC4OC(C(=O)O)C(O)C(O)C4O)cc3s2)cc1)n1cncn1 (stereo not shown) [Metabolite M9]    312.30
CCC(CC)C(c1ccc(Nc2nc3ccc(OS(=O)(=O)O)cc3s2)cc1)n1cncn1 (stereo not shown) [Metabolite M16]    207.48

P = CCC(CC)C(c1ccc(Nc2nc3ccc(O)cc3s2)cc1)n1cncn1 (stereo not shown) [Metabolite M4]
Q = CCC(CC)[C@H](c1ccc(Nc2nc3ccccc3s2)cc1)n1cncn1
Query: Which record would sort first by descending Plasma 0-24 h AUC of the radioactive component, P or Q ? Identify your selection by its label.
Reply: Q
(Q: 778.38 ng·h/g, P: 493.84 ng·h/g)

---

# assayName: Metabolite radioprofiling of plasma, urine and feces, rat
# Assay type: in vivo
# assayContext: rat (5 mg/kg) oral 14C-talarozole, male
observable: Plasma 0-24 h AUC (% Sample) (%)

CCC(CC)C(c1ccc(Nc2nc3ccc(OC4OC(C(=O)O)C(O)C(O)C4O)cc3s2)cc1)n1cncn1 (stereo not shown) [Metabolite M9]    4.43

1 = CCC(CC)C(c1ccc(Nc2nc3ccc(OS(=O)(=O)O)cc3s2)cc1)n1cncn1 (stereo not shown) [Metabolite M16]
2 = CCC(CC)C(c1ccc(Nc2nc3ccc(O)cc3s2)cc1)n1cncn1 (stereo not shown) [Metabolite M4]
3 = CCC(CC)[C@H](c1ccc(Nc2nc3ccccc3s2)cc1)n1cncn1
Query: List by increasing Plasma 0-24 h AUC (% Sample). Labels, requested order.
Reply: 1, 2, 3
(1: 2.94%, 2: 7.01%, 3: 11.05%)

---

# assayName: Metabolite radioprofiling of plasma, urine and feces, rat
# Type: in vivo
# assayContext: rat (5 mg/kg) oral 14C-talarozole, female
# Procedure: Male and female CD-1 mice (19-29 g, n=3/sex/timepoint for blood sampling, n=3/sex for mass balance), Sprague Dawley rats (0.205-0.237 kg, n=3/sex/timepoint for blood sampling, n=3/sex for mass balance) and beagle dogs (7-12 kg, n=3) were given a single oral dose of ^14C-labeled talarozole in 20% hydroxyl propyl B-cyclodextrin at 5 mg/kg. […] Radioactivity in various matrices were measured by liquid scintillation counting (LSC). […] Plasma was analyzed at several time-points out to 24 hours. […]
observable: Plasma 0-24 h AUC of the radioactive component (ng·h/g)

CCC(CC)C(c1ccc(Nc2nc3ccc(O)cc3s2)cc1)n1cncn1 (stereo not shown) [Metabolite M4]    331.07
CCC(CC)C(c1ccc(Nc2nc3ccc(OS(=O)(=O)O)cc3s2)cc1)n1cncn1 (stereo not shown) [Metabolite M16]    218.47

1 = CCC(CC)[C@H](c1ccc(Nc2nc3ccccc3s2)cc1)n1cncn1
2 = CCC(CC)C(c1ccc(Nc2nc3ccc(OC4OC(C(=O)O)C(O)C(O)C4O)cc3s2)cc1)n1cncn1 (stereo not shown) [Metabolite M9]
Query: Task for the reader: decide whether 1 or 2 has the larger Plasma 0-24 h AUC of the radioactive component. Provide the label of your selected option as the answer.
Reply: 1
(1: 3523.2 ng·h/g, 2: 1084.8 ng·h/g)

---

# assayName: Metabolite radioprofiling of plasma, urine and feces, rat
# Format: in vivo
# assayContext: rat (5 mg/kg) oral 14C-talarozole, female
observable: Plasma 0-24 h AUC (% Sample) (%)

1 = CCC(CC)C(c1ccc(Nc2nc3ccc(OS(=O)(=O)O)cc3s2)cc1)n1cncn1 (stereo not shown) [Metabolite M16]
2 = CCC(CC)[C@H](c1ccc(Nc2nc3ccccc3s2)cc1)n1cncn1
3 = CCC(CC)C(c1ccc(Nc2nc3ccc(OC4OC(C(=O)O)C(O)C(O)C4O)cc3s2)cc1)n1cncn1 (stereo not shown) [Metabolite M9]
4 = CCC(CC)C(c1ccc(Nc2nc3ccc(O)cc3s2)cc1)n1cncn1 (stereo not shown) [Metabolite M4]
Query: Sort low-to-high on Plasma 0-24 h AUC (% Sample), please. Ranked list of labels, please, in the requested order.
Reply: 1, 4, 3, 2
